# Tgt: Human Calpain 2/NS1 (Homo sapiens)
# Sequence (P17655 whole entry): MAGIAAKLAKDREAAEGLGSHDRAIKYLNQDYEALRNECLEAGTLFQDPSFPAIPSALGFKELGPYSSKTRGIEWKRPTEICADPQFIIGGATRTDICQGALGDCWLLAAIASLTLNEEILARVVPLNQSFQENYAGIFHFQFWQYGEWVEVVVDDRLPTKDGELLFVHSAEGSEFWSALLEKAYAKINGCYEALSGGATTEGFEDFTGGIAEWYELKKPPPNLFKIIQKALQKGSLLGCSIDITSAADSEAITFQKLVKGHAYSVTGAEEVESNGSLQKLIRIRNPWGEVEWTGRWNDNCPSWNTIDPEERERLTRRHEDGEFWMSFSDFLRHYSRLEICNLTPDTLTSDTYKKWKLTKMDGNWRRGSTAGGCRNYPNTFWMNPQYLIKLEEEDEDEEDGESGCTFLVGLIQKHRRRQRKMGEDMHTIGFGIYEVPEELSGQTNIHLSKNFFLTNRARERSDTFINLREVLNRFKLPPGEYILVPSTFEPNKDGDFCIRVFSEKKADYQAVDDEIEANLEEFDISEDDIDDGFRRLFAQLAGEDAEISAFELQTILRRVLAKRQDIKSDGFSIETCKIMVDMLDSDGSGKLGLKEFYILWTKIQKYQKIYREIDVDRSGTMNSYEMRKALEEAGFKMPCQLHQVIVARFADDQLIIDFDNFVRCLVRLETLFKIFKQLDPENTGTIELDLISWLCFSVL
# Sequence (P04632 whole entry partner): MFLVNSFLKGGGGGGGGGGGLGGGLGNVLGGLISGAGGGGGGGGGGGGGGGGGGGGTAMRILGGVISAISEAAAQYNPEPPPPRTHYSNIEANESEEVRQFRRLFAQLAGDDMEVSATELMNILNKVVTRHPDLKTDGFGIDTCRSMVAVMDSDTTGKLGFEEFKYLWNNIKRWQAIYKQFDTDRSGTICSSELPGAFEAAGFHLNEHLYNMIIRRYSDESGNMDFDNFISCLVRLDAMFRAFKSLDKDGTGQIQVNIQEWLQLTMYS
# Test details: Calpain inhibition, continuous fluorescence (FRET substrate) assay, calpain 2
# Test conditions: SensoLyte 520 FRET substrate, 25C
pIC50: −log10 of the molar value.
Property label: pIC50

// known answers, use as guide
Cc1nc(-c2ccccc2F)c(C(=O)NC(Cc2ccc(F)cc2)C(=O)C(N)=O)o1 (stereo not shown) :: > 5.52
Cn1cc(C(=O)NC(Cc2ccccc2)C(=O)C(N)=O)c(-c2cccc3cn[nH]c23)n1 (stereo not shown) :: > 5.52
Cc1nc(-c2c(F)cccc2F)c(C(=O)NC(Cc2ccccc2)C(=O)C(=O)O)o1 (stereo not shown) :: > 5.52

We next turn to a different molecule, shown below.
If you can, please state the reported pIC50 value of Cc1cc(C(=O)NC(Cc2ccccc2)C(=O)C(N)=O)nn1-c1nccc(-c2ccccc2)n1 (stereo not shown) .
5.00 to 5.52
